Origin of values: patent US20120121540A1

// reported inhibition at 10 µM for each item listed
Experiment: HCV replicon assay (luciferase reporter, ET cell line)
Format: cell-based
Conditions: Hepatitis C virus, HCV replicon luciferase activity in ET cells
Report the figure in % without appending any unit label.

molecule	resultType	assayResult
CN1CCN(C(=O)c2nc3c(C(F)(F)F)cc(-c4ccco4)cn3c2Cl)CC1c1ccccc1 (centres unmarked)	inhibition at 10 µM	62.4
O=C(NCc1cccs1)c1cn2cc(-c3ccco3)cc(C(F)(F)F)c2n1	inhibition at 10 µM	92.1
C#Cc1ccccc1C1=CCN(C(=O)c2nc3c(C(F)(F)F)cc(-c4ccoc4)cn3c2Cl)CC1	inhibition at 10 µM	81.3
FC(F)(F)c1cc(-c2ccoc2)cn2cc(-c3cc(-c4ccccc4)no3)nc12	inhibition at 10 µM	20.4
O=C(NCc1cccs1)c1nc2c(C(F)(F)F)cc(-c3ccsc3)cn2c1-c1ccsc1	inhibition at 10 µM	91.6
O=C(c1nc2c(C(F)(F)F)cc(-c3ccoc3)cn2c1Cl)N1CCC(N2CCOCC2)C1 (centres unmarked)	inhibition at 10 µM	37.9
CN1CCN(C(=O)c2nc3c(C(F)(F)F)cc(-c4ccco4)cn3c2Cl)C(c2ccccc2)C1 (centres unmarked)	inhibition at 10 µM	0.6
O=C(NCCN1CCOCC1)[C@@H]1CN(C(=O)c2nc3c(C(F)(F)F)cc(-c4ccoc4)cn3c2Cl)C[C@H]1c1ccccc1 (stereo in doubt)	inhibition at 10 µM	39.8
C=C(C)c1c(C(=O)NCc2cccs2)nc2c(C(F)(F)F)cc(-c3cccc(F)c3)cn12	inhibition at 10 µM	69.5
O=C(NCc1cccs1)c1nn2c(C(F)(F)F)cc(-c3ccccc3)cc2c1Cl	inhibition at 10 µM	94.3

Asked: I would be grateful if you could share the reported inhibition at 10 µM for O=C(NCc1cccs1)c1nc2c(C(F)(F)F)cc(-c3ncon3)cn2c1Cl .
Given back: 83.2

Asked: How about O=C(NC(C(=O)NCCCN1CCOCC1)c1cccs1)c1nc2c(C(F)(F)F)cc(-c3ccco3)cn2c1Cl (centres unmarked) ?
Given back: 99.4

Asked: Next molecule up: O=C(c1nc2c(C(F)(F)F)cc(-c3ccoc3)cn2c1Cl)N1CCCC(c2ccc(F)cc2)C1 (centres unmarked)
Given back: 91.2

Asked: Here is the next molecule: O=C(NCc1cccs1)c1cn2cc(-c3ccccc3)cc(C(F)(F)F)c2n1
Given back: 63
